- Assay system: his-labeled human IL-13 (immunogen A) (human) (UniProt P35225)
- Test method notes: FACS blocking, biotin-IL-13 on IL-13Ra1/IL-4Ra HEK293 cells; antibody at 0.002 nM

>  <Binder>
29D9H8 (lead antibody, mouse hybridoma) (antibody, V domains shown, Mouse monoclonal antibody purified from hybridoma supernatant on Protein G) VH: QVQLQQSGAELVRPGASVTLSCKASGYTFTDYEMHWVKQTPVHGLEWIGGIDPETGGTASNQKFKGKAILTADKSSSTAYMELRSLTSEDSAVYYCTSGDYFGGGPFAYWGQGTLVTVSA VL: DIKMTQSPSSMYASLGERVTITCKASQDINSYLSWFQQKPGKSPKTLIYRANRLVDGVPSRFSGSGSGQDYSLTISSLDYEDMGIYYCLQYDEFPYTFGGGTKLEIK

>  <mean fluorescence intensity>
75.3

$$$$
